Kindly supply the reported pIC50 values for the records listed here.
# Measurement target: human PRMT1 (Homo sapiens, UniProt Q99873)
# Construct: GST-tagged PRMT1; made in house; host or cells: High Five insect cells (baculovirus)
# Sequence (Q99873 with tags, fused parts or gaps): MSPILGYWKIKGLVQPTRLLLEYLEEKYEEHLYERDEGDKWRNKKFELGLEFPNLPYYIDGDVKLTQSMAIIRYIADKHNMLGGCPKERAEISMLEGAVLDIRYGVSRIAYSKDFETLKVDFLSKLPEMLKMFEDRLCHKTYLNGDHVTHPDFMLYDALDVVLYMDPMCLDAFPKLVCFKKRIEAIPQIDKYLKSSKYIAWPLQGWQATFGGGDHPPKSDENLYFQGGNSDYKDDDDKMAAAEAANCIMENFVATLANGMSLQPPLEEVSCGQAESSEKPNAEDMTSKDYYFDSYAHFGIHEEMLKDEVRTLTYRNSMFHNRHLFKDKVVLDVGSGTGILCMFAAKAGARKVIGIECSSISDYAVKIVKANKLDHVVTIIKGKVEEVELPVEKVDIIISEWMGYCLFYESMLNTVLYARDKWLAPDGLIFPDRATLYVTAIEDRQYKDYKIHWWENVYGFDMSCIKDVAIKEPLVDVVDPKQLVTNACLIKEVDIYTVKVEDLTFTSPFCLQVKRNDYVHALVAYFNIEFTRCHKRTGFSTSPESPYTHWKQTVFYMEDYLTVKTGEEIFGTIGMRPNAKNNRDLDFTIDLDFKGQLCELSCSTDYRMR
# Experiment: PRMT1 Biochemical Assay (3H-SAM Flashplate, peptide substrate)
# Condition label: single experiment or average of multiple experiments
# reply with the number alone; pIC50 is -log10 of concentration in mol/L

pIC50 measured on CNCCN(C)Cc1n[nH]cc1-c1cc(OC(C)C)cc(C(C)C)c1 = 6.81

pIC50 measured on CNCCN(C)Cc1c[nH]nc1-c1ccc(OC(CO)C(C)C)cc1 (stereo not shown) = 7.58

pIC50 measured on CNCCN(C)Cc1cnn(C2CCCC2)c1-c1ccc(OC(C)C)cc1 = 7.77

pIC50 measured on CC(C)Cc1cccc(-c2n[nH]cc2CN(C)CCN)c1 = 8.08

pIC50 measured on CN(CCN)Cc1c[nH]nc1-c1ccc(Oc2cccc(F)c2)cc1 = 8.61

pIC50 measured on CN(CCN)Cc1c[nH]nc1-c1ccc2c(c1)NC(=O)CO2 = 6.78

pIC50 measured on Cc1ccc(-c2n[nH]cc2CN(C)CCN)cc1Cl = 8.17

pIC50 measured on CN(CCN)Cc1nn(C)cc1-c1ccc(C#N)cc1 = 7.52

pIC50 measured on CNCCN(C)Cc1c[nH]nc1-c1cc(CC(C)C)cc(CC(C)C)c1 = 7.95

pIC50 measured on Cc1[nH]nc(-c2ccc(F)cc2)c1CN(C)CCN = 6.51

---

# Measurement target: human PRMT6 (Homo sapiens, UniProt Q96LA8)
# Construct: Flag-PRMT6-His; made in house; host or cells: HEK 293F cells (BacMam baculovirus)
# Sequence (Q96LA8 with tags, fused parts or gaps): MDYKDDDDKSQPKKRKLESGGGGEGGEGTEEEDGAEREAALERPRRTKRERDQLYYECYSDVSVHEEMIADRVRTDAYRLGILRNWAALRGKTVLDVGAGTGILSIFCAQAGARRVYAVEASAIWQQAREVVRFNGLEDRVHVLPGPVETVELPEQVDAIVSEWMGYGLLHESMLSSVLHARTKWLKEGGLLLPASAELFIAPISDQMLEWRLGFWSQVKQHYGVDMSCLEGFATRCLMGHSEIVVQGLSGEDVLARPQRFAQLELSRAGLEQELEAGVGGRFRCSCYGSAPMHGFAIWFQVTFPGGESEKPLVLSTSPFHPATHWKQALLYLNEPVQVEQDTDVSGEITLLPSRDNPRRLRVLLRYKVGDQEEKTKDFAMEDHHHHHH
# Experiment: PRMT6 Biochemical Assay (3H-SAM Flashplate, peptide substrate)
# Condition label: Biochemical IC50 PRMT6, single experiment or average of multiple experiments
Each record's IC50 is compared with bucket A: < 10 nM; bucket B: ≥ 10 nM and < 50 nM; bucket C: ≥ 50 nM to give its class.

Request: Hey, which category is CN(CCN)Cc1c[nH]nc1-c1cc(Cl)ccc1F in, do you know?
Response: bucket B

Request: Hey, which category is C=CCn1cc(CN(C)CCNC)c(-c2ccc(OC(C)C)cc2)n1 in, do you know?
Response: bucket C

Request: Hey, which category is CN(CCN)Cc1c[nH]nc1-c1ccc(C(F)(F)F)c(Cl)c1 in, do you know?
Response: bucket A

Request: Hey, which category is COc1ccc(-c2n[nH]cc2CN(C)CCN)cc1Cl in, do you know?
Response: bucket A

Request: Hey, which category is CNCCN(C)Cc1c[nH]nc1-c1ccc(OC2CC(OC)C2)cc1 (stereo not shown) in, do you know?
Response: bucket B

Request: Hey, which category is COc1ccc(-c2n[nH]cc2CN(C)CCN)c(C)c1 in, do you know?
Response: bucket B

Request: Hey, which category is CNCCN(C)Cc1cnn(CCCC(O)CO)c1-c1ccc(F)cc1 (stereo not shown) in, do you know?
Response: bucket C

Request: Hey, which category is CN(CCN)Cc1c[nH]nc1-c1ccc2c(c1)NC(=O)CO2 in, do you know?
Response: bucket B

Request: Hey, which category is CN(CCNC1CC1)Cc1c[nH]nc1-c1ccc(C#N)cc1 in, do you know?
Response: bucket C
